- assay_target: α–glucosidases
- experimental_protocol: Type of inhibition and Ki on α–glucosidases by Lineweaver–Burk plots (maltodextrin substrate)
- Format: biochemical, Wistar rats
- experimental_conditions: inhibitor at 1250 μM
The compounds listed here are annotated with their Ki.
readout_type: Ki (µM)

{"compound": "CCOC(=O)c1cc(O)c(O)c(O)c1 [C1F1 (ethyl gallate), ethyl gallate]", "assay_target": "α–glucosidases", "readout_type": "Ki", "value_measured": 315}
{"compound": "O=C(O)c1cc(O)c(O)c(O)c1", "assay_target": "α–glucosidases", "readout_type": "Ki", "value_measured": 208}

###

- assay_target: α–glucosidases
- experimental_protocol: α–glucosidase inhibition assay (crude intestinal enzyme, corn starch substrate)
- Type: biochemical, Wistar rats
- experimental_conditions: pure compounds; intestinal rat enzyme, starch as substrate
readout_type: IC50 (µM)

{"compound": "O=C(O)c1cc(O)c(O)c(O)c1", "assay_target": "α–glucosidases", "value_measured": 969}
{"compound": "O=c1cc(-c2ccc(O)c(O)c2)oc2cc(O)cc(O)c12 [Luteolin, reference compound]", "assay_target": "α–glucosidases", "value_measured": 1260}
{"compound": "CCOC(=O)c1cc(O)c(O)c(O)c1 [C1F1 (ethyl gallate), ethyl gallate]", "assay_target": "α–glucosidases", "value_measured": 832}

###

- assay_target: UniProt:P00591
- Sequence (P00591 1-450): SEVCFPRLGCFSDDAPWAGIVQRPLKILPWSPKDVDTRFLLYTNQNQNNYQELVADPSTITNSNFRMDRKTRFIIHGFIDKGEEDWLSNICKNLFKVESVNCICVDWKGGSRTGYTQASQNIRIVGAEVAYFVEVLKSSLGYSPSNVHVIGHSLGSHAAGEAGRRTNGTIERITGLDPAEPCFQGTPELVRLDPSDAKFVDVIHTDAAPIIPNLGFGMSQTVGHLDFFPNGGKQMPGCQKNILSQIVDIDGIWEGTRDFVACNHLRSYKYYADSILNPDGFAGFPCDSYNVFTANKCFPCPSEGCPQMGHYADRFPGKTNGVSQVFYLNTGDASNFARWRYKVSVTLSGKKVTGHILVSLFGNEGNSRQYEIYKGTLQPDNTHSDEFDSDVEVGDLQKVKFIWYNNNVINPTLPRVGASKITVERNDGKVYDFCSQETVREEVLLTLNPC
pIC50: −log10 of the molar value.
readout_type: pIC50

{"compound": "O=c1cc(-c2ccc(O)c(O)c2)oc2cc(O)c([C@@H]3O[C@H](CO)[C@@H](O)[C@H](O)[C@H]3O)c(O)c12 [C4F4–P (isoorientin), isoorientin]", "value_measured": 3.70}

###

- assay_target: α–glucosidases
- experimental_protocol: α–glucosidase inhibition assay (crude intestinal enzyme, corn starch substrate)
- Assay type: biochemical, Wistar rats
- experimental_conditions: pure compounds; intestinal rat enzyme, starch as substrate; listed as luteolin

{"molecule": "O=c1cc(-c2ccc(O)c(O)c2)oc2cc(O)cc(O)c12 [Luteolin, reference compound]", "IC50": "~1260 µM"}
